Tested on: HCT-116
test_protocol: cells
condition_set: Homo sapiens, HCT-116, 48 h
Description: Cytotoxicity against human HCT-116 cells assessed as reduction in cell viability incubated for 48 hrs by Hoechst-33342 staining based cell counting method (Rvb > 25 microM)
measure_name: IC50 (µM)
A number alone suffices; assume µM.

Recorded results for 4 molecules are shown here.
[[record]]
substance_smiles = "Clc1cccc(Nc2ncc3cccc(OCc4cn(-c5cc(Cl)cc(Cl)c5)nn4)c3n2)c1"
measure_name = "IC50"
number = 8

[[record]]
substance_smiles = "Clc1cccc(Nc2ncc3cccc(OCc4cn(-c5ccc(Br)cc5)nn4)c3n2)c1"
measure_name = "IC50"
number = 17

[[record]]
substance_smiles = "CC(=O)O[C@H]1C(=O)[C@@]2(C)[C@H]([C@H](OC(=O)c3ccccc3)[C@]3(O)C[C@H](OC(=O)[C@H](O)[C@@H](NC(=O)c4ccccc4)c4ccccc4)C(C)=C1C3(C)C)[C@]1(OC(C)=O)CO[C@@H]1C[C@@H]2O"
measure_name = "IC50"
number = 0.002

[[record]]
substance_smiles = "COc1cccc(-n2cc(COc3cccc4cnc(Nc5cccc(Cl)c5)nc34)nn2)c1"
measure_name = "IC50"
number = 23


GET /values?item= Clc1cccc(Nc2ncc3cccc(OCc4cn(Cc5c(Cl)cccc5Cl)nn4)c3n2)c1 &system= HCT-116 returns IC50: 24

---

test_target: Glycogen synthase kinase-3 beta (Homo sapiens) (UniProt P49841)
Sequence (P49841 whole entry, looked up): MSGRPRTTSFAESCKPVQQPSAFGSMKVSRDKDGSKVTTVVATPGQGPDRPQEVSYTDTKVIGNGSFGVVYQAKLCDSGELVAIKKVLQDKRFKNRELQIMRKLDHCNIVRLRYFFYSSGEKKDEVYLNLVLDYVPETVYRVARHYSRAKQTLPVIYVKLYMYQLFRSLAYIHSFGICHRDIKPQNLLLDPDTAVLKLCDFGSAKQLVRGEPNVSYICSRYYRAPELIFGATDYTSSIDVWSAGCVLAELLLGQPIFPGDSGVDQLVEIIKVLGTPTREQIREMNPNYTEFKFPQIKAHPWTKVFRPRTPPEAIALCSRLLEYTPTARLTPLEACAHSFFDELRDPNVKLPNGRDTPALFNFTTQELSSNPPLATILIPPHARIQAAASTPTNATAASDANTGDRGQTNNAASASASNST
test_protocol: Inhibition of human GSK3beta assessed as residual activity at 10 uM by ADP-Glo assay relative to control
# note: exactly 60% is not below, so it is n; use y for Activity strictly under it

[[record]]
substance_smiles = "Clc1cccc(Nc2ncc3cccc(OCc4cn(-c5cc(Cl)cc(Cl)c5)nn4)c3n2)c1"
assigned_category = "y"

[[record]]
substance_smiles = "Clc1cccc(Nc2ncc3cccc(OCc4cn(Cc5c(Cl)cccc5Cl)nn4)c3n2)c1"
assigned_category = "y"

[[record]]
substance_smiles = "COc1cccc(-n2cc(COc3cccc4cnc(Nc5cccc(Cl)c5)nc34)nn2)c1"
assigned_category = "y"


# evaluate next
[Q] Is Activity of O=[N+]([O-])c1ccc(-n2cc(COc3cccc4cnc(Nc5cccc(Cl)c5)nc34)nn2)cc1 strictly below 60%?
[A] n

---

test_target: CDK9/cyclin T1 (Homo sapiens) (UniProt O60563+P50750)
test_protocol: Inhibition of human CDK9/CyclinT assessed as residual activity at 10 uM by ADP-Glo assay relative to control
Assay type: protein-complex assay
Binary call on Activity with cut-off 70%: strictly below means met, and equality or higher means not met.

[[record]]
substance_smiles = "Cc1ccc(-n2cc(COc3cccc4cnc(Nc5cccc(Cl)c5)nc34)nn2)cc1[N+](=O)[O-]"
assigned_category = "met"


[Q] Consider the molecule Clc1cccc(Nc2ncc3cccc(OCc4cn(Cc5ccccc5)nn4)c3n2)c1 . Is its Activity strictly less than 70%?
[A] not met

[Q] State whether 70% exceeds Activity recorded for COc1ccccc1-n1cc(COc2cccc3cnc(Nc4cccc(Cl)c4)nc23)nn1 .
[A] not met

[Q] Problem: For the molecule Clc1cccc(Nc2ncc3cccc(OCc4cn(-c5cc(Cl)cc(Cl)c5)nn4)c3n2)c1 , is Activity under 70%?
[A] met

[Q] Say whether its Activity is strictly beneath 70%. Entry: COc1cccc(-n2cc(COc3cccc4cnc(Nc5cccc(Cl)c5)nc34)nn2)c1
[A] not met

[Q] In the record for Clc1ccc(-n2cc(COc3cccc4cnc(Nc5cccc(Cl)c5)nc34)nn2)cc1 , is Activity less than 70%?
[A] not met

[Q] Item Clc1cccc(Nc2ncc3cccc(OCc4cn(Cc5c(Cl)cccc5Cl)nn4)c3n2)c1 : Activity beneath 70%, strictly?
[A] met

---

test_target: Dual specificity protein kinase CLK1 (Mus musculus) (UniProt P22518)
Sequence (P22518 whole entry, looked up): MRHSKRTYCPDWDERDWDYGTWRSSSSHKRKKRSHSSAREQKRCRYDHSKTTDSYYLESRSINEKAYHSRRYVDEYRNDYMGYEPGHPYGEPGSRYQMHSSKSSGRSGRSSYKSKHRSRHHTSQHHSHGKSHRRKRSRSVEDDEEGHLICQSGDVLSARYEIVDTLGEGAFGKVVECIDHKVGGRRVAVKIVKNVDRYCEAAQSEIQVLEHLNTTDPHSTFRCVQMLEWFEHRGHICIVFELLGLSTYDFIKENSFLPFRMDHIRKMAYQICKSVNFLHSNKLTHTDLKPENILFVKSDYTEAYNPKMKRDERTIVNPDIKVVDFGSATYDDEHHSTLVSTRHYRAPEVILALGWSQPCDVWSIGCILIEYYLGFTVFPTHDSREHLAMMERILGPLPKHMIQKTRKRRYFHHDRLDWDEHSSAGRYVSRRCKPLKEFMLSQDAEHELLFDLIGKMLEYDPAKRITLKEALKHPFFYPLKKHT
measure_name: IC50 (µM)
Please respond with the number in µM and leave the unit unwritten.

response.value for Cc1ccc(-n2cc(COc3cccc4cnc(Nc5cccc(Cl)c5)nc34)nn2)cc1[N+](=O)[O-] (field: IC50) = 3

---

test_target: Cyclin-dependent kinase 5/CDK5 activator 1 (Homo sapiens) (UniProt Q00535+Q15078)
Sequence (Q00535 whole entry): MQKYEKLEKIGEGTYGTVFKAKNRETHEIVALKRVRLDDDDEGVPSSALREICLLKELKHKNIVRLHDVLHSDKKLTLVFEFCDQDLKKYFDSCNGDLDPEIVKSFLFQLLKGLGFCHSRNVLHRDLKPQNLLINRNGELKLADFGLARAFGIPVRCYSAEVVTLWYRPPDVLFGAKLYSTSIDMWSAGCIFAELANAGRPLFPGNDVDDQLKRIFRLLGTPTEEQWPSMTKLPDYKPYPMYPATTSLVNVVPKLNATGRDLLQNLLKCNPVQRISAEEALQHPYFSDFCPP
Sequence (Q15078 99-307 partner limits assumed): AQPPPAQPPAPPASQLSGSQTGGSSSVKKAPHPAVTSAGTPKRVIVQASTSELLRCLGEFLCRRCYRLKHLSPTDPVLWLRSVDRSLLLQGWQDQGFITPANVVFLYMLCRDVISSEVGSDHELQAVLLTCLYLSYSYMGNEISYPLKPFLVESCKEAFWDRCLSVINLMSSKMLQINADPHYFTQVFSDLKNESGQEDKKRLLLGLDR
test_protocol: Inhibition of human CDK5/p25 assessed as residual activity at 10 uM by ADP-Glo assay relative to control
Assay type: protein-complex assay
Quick list: Activity per entry.
Use % as the unit, but write only the number.

[[record]]
substance_smiles = "Cc1ccc(-n2cc(COc3cccc4cnc(Nc5cccc(Cl)c5)nc34)nn2)cc1[N+](=O)[O-]"
measure_name = "Activity"
number = 40

[[record]]
substance_smiles = "COc1ccc(-n2cc(COc3cccc4cnc(Nc5cccc(Cl)c5)nc34)nn2)cc1"
measure_name = "Activity"
number = 100

[[record]]
substance_smiles = "Clc1cccc(Nc2ncc3cccc(OCc4cn(-c5cc(Cl)cc(Cl)c5)nn4)c3n2)c1"
measure_name = "Activity"
number = 90

[[record]]
substance_smiles = "COc1cccc(-n2cc(COc3cccc4cnc(Nc5cccc(Cl)c5)nc34)nn2)c1"
measure_name = "Activity"
number = 94

[[record]]
substance_smiles = "O=[N+]([O-])c1ccc(-n2cc(COc3cccc4cnc(Nc5cccc(Cl)c5)nc34)nn2)cc1"
measure_name = "Activity"
number = 94

[[record]]
substance_smiles = "Clc1cccc(Nc2ncc3cccc(OCc4cn(Cc5c(Cl)cccc5Cl)nn4)c3n2)c1"
measure_name = "Activity"
number = 94


In the following, a different compound is considered.
The recorded Activity for entry Clc1cccc(Nc2ncc3cccc(OCc4cn(-c5ccc(Br)cc5)nn4)c3n2)c1 equals 100

---

test_target: Serine/threonine-protein kinase haspin (Homo sapiens)
test_protocol: Inhibition of human HASPIN assessed as residual activity at 10 uM by ADP-Glo assay relative to control
Lab note: compare Activity against 80%. Equal or greater, write fulfilled. Smaller, write not fulfilled.

[[record]]
substance_smiles = "COc1ccc(-n2cc(COc3cccc4cnc(Nc5cccc(Cl)c5)nc34)nn2)cc1"
assigned_category = "fulfilled"

[[record]]
substance_smiles = "Clc1cccc(Nc2ncc3cccc(OCc4cn(-c5cc(Cl)cc(Cl)c5)nn4)c3n2)c1"
assigned_category = "not fulfilled"


[Q] Activity >= 80% for Clc1ccc(-n2cc(COc3cccc4cnc(Nc5cccc(Cl)c5)nc34)nn2)cc1 ?
[A] fulfilled

[Q] I'd appreciate it if you could say whether Clc1cccc(Nc2ncc3cccc(OCc4cn(Cc5c(Cl)cccc5Cl)nn4)c3n2)c1 has Activity at least equal to 80%.
[A] not fulfilled

[Q] Tell me whether Activity is at least 80% here: Cc1ccc(-n2cc(COc3cccc4cnc(Nc5cccc(Cl)c5)nc34)nn2)cc1[N+](=O)[O-]
[A] not fulfilled

[Q] Does the compound Clc1cccc(Nc2ncc3cccc(OCc4cn(Cc5ccccc5)nn4)c3n2)c1 have recorded Activity that is 80% or more?
[A] fulfilled

[Q] Kindly determine if Activity recorded for Clc1cccc(Nc2ncc3cccc(OCc4cn(-c5ccc(Br)cc5)nn4)c3n2)c1 is above or exactly 80%.
[A] fulfilled

---

test_target: DYRK1A (dual specificity tyrosine-phosphorylation-regulated kinase 1A) (Rattus norvegicus, UniProt Q63470)
test_protocol: Inhibition of rat DYRK1A (1 to 499 residues) assessed as residual activity at 10 uM by ADP-Glo assay relative to control
condition_set: rat DYRK1A enzyme (residues 1 to 499), read-out: Activity
Binary classification by activity at 10 µM, with 90% as an inclusive lower bound for class 1; all other cases are class 0.

Known results for compounds:
[[record]]
substance_smiles = "Clc1ccc(-n2cc(COc3cccc4cnc(Nc5cccc(Cl)c5)nc34)nn2)cc1"
assigned_category = "class 1"

[[record]]
substance_smiles = "O=[N+]([O-])c1ccc(-n2cc(COc3cccc4cnc(Nc5cccc(Cl)c5)nc34)nn2)cc1"
assigned_category = "class 1"

[[record]]
substance_smiles = "COc1ccc(-n2cc(COc3cccc4cnc(Nc5cccc(Cl)c5)nc34)nn2)cc1"
assigned_category = "class 1"


[Q] I'd appreciate it if you could say whether COc1cccc(-n2cc(COc3cccc4cnc(Nc5cccc(Cl)c5)nc34)nn2)c1 has activity at 10 µM at least equal to 90%.
[A] class 0

[Q] Determine whether this compound has activity at 10 µM no lower than 90%: Cc1ccc(-n2cc(COc3cccc4cnc(Nc5cccc(Cl)c5)nc34)nn2)cc1[N+](=O)[O-]
[A] class 0

[Q] Confirm if activity at 10 µM reported for the compound Clc1cccc(Nc2ncc3cccc(OCc4cn(Cc5ccccc5)nn4)c3n2)c1 is 90% or above.
[A] class 0

---

We begin with a simple list: items and their reported Activity.
test_target: Serine/threonine-protein kinase pim-1 (Homo sapiens)
test_protocol: Inhibition of human PIM1 assessed as residual activity at 10 uM by ADP-Glo assay relative to control
Record the value in %, omitting the unit from your answer.

Examples with answers:
[[record]]
substance_smiles = "COc1ccccc1-n1cc(COc2cccc3cnc(Nc4cccc(Cl)c4)nc23)nn1"
test_target = "Serine/threonine-protein kinase pim-1 (Homo sapiens)"
unit_label = "%"
number = 84

[[record]]
substance_smiles = "COc1ccc(-n2cc(COc3cccc4cnc(Nc5cccc(Cl)c5)nc34)nn2)cc1"
test_target = "Serine/threonine-protein kinase pim-1 (Homo sapiens)"
unit_label = "%"
number = 69

[[record]]
substance_smiles = "Clc1ccc(-n2cc(COc3cccc4cnc(Nc5cccc(Cl)c5)nc34)nn2)cc1"
test_target = "Serine/threonine-protein kinase pim-1 (Homo sapiens)"
unit_label = "%"
number = 86

[[record]]
substance_smiles = "Cc1ccc(-n2cc(COc3cccc4cnc(Nc5cccc(Cl)c5)nc34)nn2)c([N+](=O)[O-])c1"
test_target = "Serine/threonine-protein kinase pim-1 (Homo sapiens)"
unit_label = "%"
number = 81

[[record]]
substance_smiles = "Clc1cccc(Nc2ncc3cccc(OCc4cn(-c5ccc(Br)cc5)nn4)c3n2)c1"
test_target = "Serine/threonine-protein kinase pim-1 (Homo sapiens)"
unit_label = "%"
number = 79

[[record]]
substance_smiles = "Cc1ccc(-n2cc(COc3cccc4cnc(Nc5cccc(Cl)c5)nc34)nn2)cc1[N+](=O)[O-]"
test_target = "Serine/threonine-protein kinase pim-1 (Homo sapiens)"
unit_label = "%"
number = 45

[[record]]
substance_smiles = "Clc1cccc(Nc2ncc3cccc(OCc4cn(Cc5c(Cl)cccc5Cl)nn4)c3n2)c1"
test_target = "Serine/threonine-protein kinase pim-1 (Homo sapiens)"
unit_label = "%"
number = 97

[[record]]
substance_smiles = "O=[N+]([O-])c1ccc(-n2cc(COc3cccc4cnc(Nc5cccc(Cl)c5)nc34)nn2)cc1"
test_target = "Serine/threonine-protein kinase pim-1 (Homo sapiens)"
unit_label = "%"
number = 79


In the following, a different compound is considered.
Value of Activity reported for the compound COc1cccc(-n2cc(COc3cccc4cnc(Nc5cccc(Cl)c5)nc34)nn2)c1 is 79
